System: CV-A10
test.summary: Plaque reduction assay, CV-A10 in RD cells
Type: cell-based, Coxsackievirus A10
assay.conditions: read-out: IC50 against CV-A10 in plaque reduction assay
experimental.endpoint: pIC50
# pIC50: negative log10 of molar concentration; output just the value

The measured pIC50 associated with CC(C)C[C@H](NC(=O)OCc1ccccc1)C(=O)N[C@@H](CC1CCNC1=O)C(O)S(=O)(=O)O (stereo partly shown) reads 6.62

Sourced from paper PMC10520345
